Consider the following compounds; for each one, report its log10 EC50.
Target: human Farnesoid X receptor ligand-binding domain/Gal4 DNA binding domain chimera (Homo sapiens, UniProt Q96RI1)
Test: Cell-based assay of FXR activation (FXR-UAS-bla HEK 293T beta-lactamase reporter)
Lab note - EC50 converted to log10 from values in nM.

Value of log10 EC50 reported for the compound O=C(O)c1ccc(N2C[C@@H]3C[C@H]2C[C@H]3OCc2c(-c3c(Cl)cccc3Cl)cnn2C2CC2)cc1 [Compound I-41] is 2.90

Value of log10 EC50 reported for the compound O=C(O)CCc1ccc(N2C[C@@H]3C[C@H]2C[C@H]3OCc2c(C3CC3)cnn2-c2c(Cl)cccc2Cl)c(F)c1 [Compound I-33] is 0.60

Value of log10 EC50 reported for the compound O=C(O)c1cc(OC2CC2)c2nc(N3C[C@@H]4C[C@H]3C[C@H]4OCc3c(-c4c(Cl)cccc4Cl)nnn3C3CC3)sc2c1 [Compound I-64] is 1.00

Value of log10 EC50 reported for the compound O=C(O)c1cc(F)c2nc(N3C[C@@H]4C[C@H]3C[C@H]4OCc3c(C4CC4)cnn3-c3c(Cl)cccc3Cl)sc2c1 [Compound I-30] is 0.20

Value of log10 EC50 reported for the compound O=C(O)c1cc(OC(F)(F)F)c2nc(N3C[C@@H]4C[C@H]3C[C@H]4OCc3c(-c4c(Cl)cccc4Cl)nnn3C3CC3)sc2c1 [Compound I-63] is 1.10

* * *

Consider the following molecules; for each one, report its EC50.
Target: human Farnesoid X receptor ligand-binding domain/Gal4 DNA binding domain chimera (Homo sapiens)
Assay: Cell-based assay of FXR activation (FXR-UAS-bla HEK 293T beta-lactamase reporter)

Value of EC50 reported for the molecule O=C(O)c1cc([C@@H]2CCOC2)c2nc(N3C[C@@H]4C[C@H]3C[C@H]4OCc3c(C4CC4)nnn3-c3c(Cl)cccc3Cl)sc2c1 (single isomer, unassigned) [Compound I-59] is 2.51 nM

Value of EC50 reported for the molecule O=C(O)c1ccc(N2C[C@@H]3C[C@H]2C[C@H]3OCc2c(C3CC3)cnn2-c2c(F)cccc2F)cc1F [Compound I-10] is 31.6 nM

Value of EC50 reported for the molecule O=C(NS(=O)(=O)CC1CCOC1)c1ccc(N2C[C@@H]3C[C@H]2C[C@H]3OCc2c(C3CC3)cnn2-c2c(Cl)cccc2Cl)cc1 (stereo partly drawn) [Compound I-24] is 2.51 nM

Value of EC50 reported for the molecule O=C(O)c1cc(C2CCOCC2)c2nc(N3C[C@@H]4C[C@H]3C[C@H]4OCc3c(-c4c(Cl)cccc4Cl)cnn3C3CC3)sc2c1 [Compound I-49] is < 63.1 nM

Value of EC50 reported for the molecule O=C(NS(=O)(=O)C1CCOC1)c1ccc(N2C[C@@H]3C[C@H]2C[C@H]3OCc2c(C3CC3)cnn2-c2c(Cl)cccc2Cl)cc1 (stereo partly drawn) [Compound I-23] is 2.51 nM

Value of EC50 reported for the molecule O=C(NS(=O)(=O)C1CCOCC1)c1ccc(N2C[C@@H]3C[C@H]2C[C@H]3OCc2c(C3CC3)nnn2-c2c(Cl)cccc2Cl)cc1 [Compound I-56] is 10 nM

* * *

Molecular target: human Farnesoid X receptor ligand-binding domain/Gal4 DNA binding domain chimera (Homo sapiens, UniProt Q96RI1)
Construct: host or cells: FXR-UAS-bla HEK 293T (CellSensor UAS-bla HEK 293T)
Experiment: Cell-based assay of FXR activation (FXR-UAS-bla HEK 293T beta-lactamase reporter)
Conditions: HEK-293T, read-out: Cellular % Efficacy
Consider the following compounds; for each one, report its Emax.
Please state the figure in %; there is no need to write the unit.

Value of Emax reported for the compound O=C(NS(=O)(=O)C1CCOCC1)c1ccc(N2C[C@@H]3C[C@H]2C[C@H]3OCc2c(C3CC3)cnn2-c2c(Cl)cccc2Cl)cc1 is 102

Value of Emax reported for the compound O=C(O)c1ccc(N2C[C@@H]3C[C@H]2C[C@H]3OCc2c(C3CC3)cnn2-c2c(F)cccc2F)cc1F is 118

Value of Emax reported for the compound O=C(O)c1cc([C@@H]2CCOC2)c2nc(N3C[C@@H]4C[C@H]3C[C@H]4OCc3c(-c4c(Cl)cccc4Cl)cnn3C3CC3)sc2c1 (single isomer, unassigned) is 100

Value of Emax reported for the compound O=C(O)c1cc(F)c2nc(N3C[C@@H]4C[C@H]3C[C@H]4OCc3c(-c4c(Cl)cccc4Cl)cnn3C3CC3)sc2c1 is 94

Value of Emax reported for the compound O=C(O)c1cc(OC2CC2)c2nc(N3C[C@@H]4C[C@H]3C[C@H]4OCc3c(-c4c(Cl)cccc4Cl)nnn3C3CC3)sc2c1 is 113

Value of Emax reported for the compound O=C(O)c1ccc(N2C[C@@H]3C[C@H]2C[C@H]3OCc2c(-c3c(Cl)cccc3Cl)cnn2C2CC2)cc1F is 110

Value of Emax reported for the compound O=C(O)c1cc(O[C@H]2CCOC2)c2nc(N3C[C@@H]4C[C@H]3C[C@H]4OCc3c(C4CC4)nnn3-c3c(Cl)cccc3Cl)sc2c1 is 107

Value of Emax reported for the compound O=C(O)c1ccc(N2C[C@@H]3C[C@H]2C[C@H]3OCc2c(C3CC3)nnn2-c2c(Cl)cccc2Cl)cc1F is 92

Value of Emax reported for the compound O=C(NS(=O)(=O)C1CCOC1)c1ccc(N2C[C@@H]3C[C@H]2C[C@H]3OCc2c(C3CC3)cnn2-c2c(Cl)cccc2Cl)cc1 (stereo partly drawn) is 111

* * *

Biological target: human Farnesoid X receptor ligand-binding domain/Gal4 DNA binding domain chimera (Homo sapiens, UniProt Q96RI1)
Construct: host or cells: FXR-UAS-bla HEK 293T (CellSensor UAS-bla HEK 293T)
Assay: Cell-based assay of FXR activation (FXR-UAS-bla HEK 293T beta-lactamase reporter)
Conditions: HEK-293T, read-out: Cellular % Efficacy
Consider the following compounds; for each one, report its Emax.
Please state the figure in %; there is no need to write the unit.

Value of Emax reported for the compound CS(=O)(=O)CCNC(=O)c1ccc(N2C[C@@H]3C[C@H]2C[C@H]3OCc2c(-c3c(Cl)cccc3Cl)cnn2C2CC2)cc1F [Compound I-45] is 92

Value of Emax reported for the compound O=C(O)c1cc(OC2CC2)c2nc(N3C[C@@H]4C[C@H]3C[C@H]4OCc3c(C4CC4)cnn3-c3c(Cl)cccc3Cl)sc2c1 [Compound I-31] is 110

Value of Emax reported for the compound O=C(O)CCc1ccc(N2C[C@@H]3C[C@H]2C[C@H]3OCc2c(C3CC3)nnn2-c2c(Cl)cccc2Cl)cc1F [Compound I-55] is 91

* * *

Biological target: human Farnesoid X receptor ligand-binding domain/Gal4 DNA binding domain chimera (Homo sapiens, UniProt Q96RI1)
Construct: host or cells: FXR-UAS-bla HEK 293T (CellSensor UAS-bla HEK 293T)
Test: Cell-based assay of FXR activation (FXR-UAS-bla HEK 293T beta-lactamase reporter)
Settings: HEK-293T, read-out: Cellular % Efficacy
Protocol: FXR activation was measured using a cell line and procedure obtained from Life Technologies (Cat #K1691). […] Activation of FXR by bound ligands results in transcriptional activation of the beta-lactamase reporter gene, which is detected via assay of beta-lactamase activity. Cells are harvested and diluted into assay medium containing phenol red-free DMEM supplemented with 2% Charcoal-stripped FBS, pyruvate, non-essential amino acids. Cells are then transferred to a 384 well assay plate. […]
MEASUREMENT_NAME: Emax (%)
Please state the figure in %; there is no need to write the unit.

Value of Emax reported for the compound O=C(O)c1ccc(N2C[C@@H]3C[C@H]2C[C@H]3OCc2c(-c3c(Cl)cccc3Cl)nnn2C2CC2)cc1 is 106

Value of Emax reported for the compound O=C(O)c1cc(OC(F)(F)F)c2nc(N3C[C@@H]4C[C@H]3C[C@H]4OCc3c(-c4c(Cl)cccc4Cl)nnn3C3CC3)sc2c1 is 103

Value of Emax reported for the compound O=C(O)c1cc([C@@H]2CCOC2)c2nc(N3C[C@@H]4C[C@H]3C[C@H]4OCc3c(-c4c(Cl)cccc4Cl)nnn3C3CC3)sc2c1 (single isomer, unassigned) is 110

Value of Emax reported for the compound O=C(O)CCc1ccc(N2C[C@@H]3C[C@H]2C[C@H]3OCc2c(C3CC3)nnn2-c2c(Cl)cccc2Cl)c(F)c1 is 100

Value of Emax reported for the compound O=C(NS(=O)(=O)CC1CCOC1)c1ccc(N2C[C@@H]3C[C@H]2C[C@H]3OCc2c(C3CC3)cnn2-c2c(Cl)cccc2Cl)cc1 (stereo partly drawn) is 107

Value of Emax reported for the compound O=C(O)c1cc(C2CCCC2)c2nc(N3C[C@@H]4C[C@H]3C[C@H]4OCc3c(-c4c(Cl)cccc4Cl)nnn3C3CC3)sc2c1 is 111

* * *

Target: human Farnesoid X receptor ligand-binding domain/Gal4 DNA binding domain chimera (Homo sapiens, UniProt Q96RI1)
Construct: host or cells: FXR-UAS-bla HEK 293T (CellSensor UAS-bla HEK 293T)
Sequence (Q96RI1 262-486 limits assumed): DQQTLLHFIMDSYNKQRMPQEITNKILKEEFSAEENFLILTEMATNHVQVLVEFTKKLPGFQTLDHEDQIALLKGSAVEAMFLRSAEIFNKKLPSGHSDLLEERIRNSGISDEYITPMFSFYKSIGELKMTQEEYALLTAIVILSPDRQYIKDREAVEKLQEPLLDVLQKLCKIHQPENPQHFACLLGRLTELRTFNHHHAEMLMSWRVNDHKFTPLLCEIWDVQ
Assay: Cell-based assay of FXR activation (FXR-UAS-bla HEK 293T beta-lactamase reporter)
Details: HEK-293T, read-out: Cellular % Efficacy
Consider the following compounds; for each one, report its Emax.
Please state the figure in %; there is no need to write the unit.

Value of Emax reported for the compound O=C(O)c1ccc(N2C[C@@H]3C[C@H]2C[C@H]3OCc2c(C3CC3)cnn2-c2c(Cl)cccc2Cl)cc1 is 110

Value of Emax reported for the compound O=C(O)c1cc([C@H]2CCOC2)c2nc(N3C[C@@H]4C[C@H]3C[C@H]4OCc3c(-c4c(Cl)cccc4Cl)nnn3C3CC3)sc2c1 (single isomer, unassigned) is 108

Value of Emax reported for the compound O=C(O)c1cc(C2CCC2)c2nc(N3C[C@@H]4C[C@H]3C[C@H]4OCc3c(-c4c(Cl)cccc4Cl)nnn3C3CC3)sc2c1 is 106

Reference source: patent US11753410B2
